Tested on: TK-10
testSummary: NCI tumour cell line growth inhibition, 48 h
Calls of active or inactive are those of the source. Cut-off read from the data, not from the text of the source: active = GI50 up to about 1.1 µM and inactive = higher. Where a SMILES comes first, the peptide text is derived from it. The star is where a group is joined. Boc = CC(C)(C)OC(=O)*; nBu = CCCC*
observationType: GI50

Before answering, review these 4 worked examples.
Exercise: Find the measured GI50 of O=S(O)c1cc(Cl)c(O)c(Cl)c1 and report it.
Key: > 100 µM (inactive)

Exercise: Find the measured GI50 of CCCCOc1ccc(CC(NC(=O)OC(C)(C)C)C(=O)NC(C)C(=O)NC(Cc2ccccc2)C(=O)NCC(N)=O)cc1 (stereo not given) (Boc-Y(nBu)AFG-NH2; configuration not given here) and report it.
Key: > 100 µM (inactive)

Exercise: Find the measured GI50 of COCCOCCOCCOc1ccc(C(C#N)N(CCc2ccccc2)C(=O)c2cc(C(=O)N(CCc3ccccc3)C(C#N)c3ccc(OCCOCCOCCOC)cc3)cc(C(=O)N(CCc3ccccc3)C(C#N)c3ccc(OCCOCCOCCOC)cc3)c2)cc1 (stereo not given) and report it.
Key: > 100 µM (inactive)

Exercise: Find the measured GI50 of CCCCON1C[C@@H](O)C(O)[C@@H](O)C1 (stereo not given in full) and report it.
Key: > 100 µM (inactive)

Lab note: next compound to report on.
Exercise: Find the measured GI50 of COC(=O)C1(Cc2ccccc2)Cc2ccc3c(c2C1=O)CCC3 (stereo not given) and report it.
Key: > 47.5 µM (inactive)

FYI, the data here is from ChEMBL document CHEMBL1201862.
